Entries and their measured pEC50 follow.
test system: Trypanosoma cruzi amastigotes (Tulahuen strain expressing Lac-Z) cultured in 3T3 fibroblast cells; experiment: microbe, parasite or virus in culture; type: cell-based; conditions: Trypanosoma cruzi, TULAHUEN, Fibroblast, T. cruzi amastigotes in 3T3 fibroblast cells; read-out: T cruzi EC50
pEC50: −log10 of the molar value.
Outcome Measure: pEC50

Compound: CC(C)OC(=O)Nc1cnc2nc(-c3cc(-n4cn[nH]c4=O)ccc3Cl)cn2c1
Limit Qualifier: <
Reported: 4.70

Compound: Cc1nc(C)c(C(=O)Nc2ccc(F)c(-c3cn4cc(-c5cccc(C(N)=O)n5)cnc4n3)c2)o1
Limit Qualifier: <
Reported: 4.70

Compound: O=C(Nc1ccc(F)c(-c2cn3cc(-n4cn[nH]c4=O)cnc3n2)c1)N1CCCC1
Limit Qualifier: <
Reported: 4.70

Compound: CC(C)OC(=O)Nc1cnc2nc(-c3cc(Nc4ncccc4OC(F)(F)F)ccc3F)cn2c1
Limit Qualifier: <
Reported: 4.78

Compound: Cc1nc(C)c(C(=O)Nc2ccc(F)c(-c3cn4cc(-c5ccccn5)cnc4n3)c2)o1
Limit Qualifier: <
Reported: 4.70

Compound: CCNc1cnc2nc(-c3cc(NC(=O)c4oc(C)nc4C)ccc3F)cn2c1
Limit Qualifier: =
Reported: 6.33

Compound: CC1(c2nc(Nc3ccc(F)c(-c4cn5cc(C6CC6)cnc5n4)c3)no2)COC1
Limit Qualifier: =
Reported: 5.04

Compound: COCCN(C(=O)OC(C)C)c1cnc2nc(-c3cc(NC(=O)c4oc(C)nc4C)ccc3F)cn2c1
Limit Qualifier: =
Reported: 5.88

Compound: Cc1ncc(C(=O)Nc2ccc(F)c(-c3cn4cc(C5CCOCC5)cnc4n3)c2)o1
Limit Qualifier: =
Reported: 6.93

Compound: CC(C)(C)OC(=O)N[C@H]1CC[C@H](CNc2cnc3nc(-c4cc(NC(=O)N5CCCC5)ccc4F)cn3c2)CC1
Limit Qualifier: =
Reported: 6.41

Compound: Cc1nc(C)c(C(=O)Nc2ccc(F)c(-c3cn4cc(NC5=NCC(C(F)(F)F)O5)cnc4n3)c2)o1 (stereo not drawn)
Limit Qualifier: =
Reported: 4.94

Compound: CCn1nccc1-c1cnc2nc(-c3cc(NC(=O)c4oc(C)nc4C)ccc3F)cn2c1
Limit Qualifier: =
Reported: 6.83

Compound: Cc1nc(C)c(C(=O)Nc2ccc(F)c(-c3cn4cc(-c5cn(C)cn5)cnc4n3)c2)o1
Limit Qualifier: =
Reported: 6.91

Compound: CC(C)OC(=O)N(C)c1cnc2nc(-c3cc(NC(=O)c4ccc(Cl)o4)ccc3F)cn2c1
Limit Qualifier: =
Reported: 7.38

Compound: Cc1nc(C)c(C(=O)Nc2ccc(F)c(-c3cn4cc(-c5nc(C)c(C)s5)cnc4n3)c2)o1
Limit Qualifier: =
Reported: 6.49

Compound: CN(C)c1cnc2nc(-c3cc(NC(=O)N4CC[C@@H](F)C4)ccc3F)cn2c1
Limit Qualifier: =
Reported: 6.84

Compound: Cc1nc(C)c(C(=O)Nc2ccc(F)c(-c3cn4cc(NC5CCC5)cnc4n3)c2)o1
Limit Qualifier: =
Reported: 6.26

Compound: Cc1nc(C)c(C(=O)Nc2ccc(F)c(-c3cn4cc(-c5cnn(C)c5)cnc4n3)c2)o1
Limit Qualifier: =
Reported: 6.60

---

Entries and their measured EC50 follow.
system: Leishmania donovani axenic amastigote parasites; assay: Leishmania donovani axenic amastigote proliferation assay (Cell TiterGlo luminescence, 2 day incubation); type: cell-based; conditions: Leishmania donovani, L. donovani axenic amastigotes; read-out: L. donovani amastigotes EC50
Outcome Measure: EC50 (nM)

Compound: COc1cccc(-c2cnc3nc(-c4cc(NC(=O)c5oc(C)nc5C)ccc4F)cn3c2)n1
Outcome Measure: EC50
Limit Qualifier: =
Reported: 75
//
Compound: Cc1nc(C)c(C(=O)Nc2ccc(F)c(-c3cn4cc(CC5CCC5)cnc4n3)c2)o1
Outcome Measure: EC50
Limit Qualifier: =
Reported: 30
//
Compound: Cc1nc(C)c(C(=O)Nc2ccc(F)c(-c3cn4cc(-c5ccccn5)cnc4n3)c2)o1
Outcome Measure: EC50
Limit Qualifier: =
Reported: 80
//
Compound: O=C(Nc1ccc(F)c(-c2cn3cc(-c4ccccn4)cnc3n2)c1)N1CC(F)C1
Outcome Measure: EC50
Limit Qualifier: =
Reported: 45
//
Compound: Cc1nc(C)c(C(=O)Nc2ccc(F)c(-c3cn4cc(-c5cccnc5)cnc4n3)c2)o1
Outcome Measure: EC50
Limit Qualifier: =
Reported: 109
//
Compound: COCCN(C(=O)OC(C)C)c1cnc2nc(-c3cc(NC(=O)c4oc(C)nc4C)ccc3F)cn2c1
Outcome Measure: EC50
Limit Qualifier: =
Reported: 3110
//
Compound: Cc1nc(C)c(C(=O)Nc2ccc(F)c(-c3cn4cc(-c5cncc(F)c5)cnc4n3)c2)o1
Outcome Measure: EC50
Limit Qualifier: =
Reported: 81
//
Compound: O=C(Nc1ccc(F)c(-c2cn3cc(-n4cn[nH]c4=O)cnc3n2)c1)N1CCCC1
Outcome Measure: EC50
Limit Qualifier: >
Reported: 23700
//
Compound: O=C(Nc1ccc(F)c(-c2cn3cc(NC4CCOCC4)cnc3n2)c1)N1CCCC1
Outcome Measure: EC50
Limit Qualifier: =
Reported: 1310
//
Compound: Cc1cccnc1-c1cnc2nc(-c3cc(NC(=O)N4CC[C@@H](F)C4)ccc3F)cn2c1
Outcome Measure: EC50
Limit Qualifier: =
Reported: 22
//
Compound: Cc1nc(C)c(C(=O)Nc2ccc(F)c(-c3cn4cc(N5CCCC5)cnc4n3)c2)o1
Outcome Measure: EC50
Limit Qualifier: =
Reported: 260
//
Compound: Cc1nc(C)c(C(=O)Nc2ccc(F)c(-c3cn4cc(C(C)N5CCOCC5)cnc4n3)c2)o1 (centres unmarked)
Outcome Measure: EC50
Limit Qualifier: =
Reported: 903
//
Compound: CC(C)(CO)c1nc(Nc2ccc(F)c(-c3cn4cc(C5CC5)cnc4n3)c2)no1
Outcome Measure: EC50
Limit Qualifier: >
Reported: 21200
//
Compound: Cc1nc(C(=O)Nc2ccc(Cl)c(-c3cn4cc(NC(=O)OC(C)C)cnc4n3)c2)no1
Outcome Measure: EC50
Limit Qualifier: >
Reported: 25000
//
Compound: O=C(Nc1ccc(F)c(-c2cn3cc(OCCN4CCOCC4)cnc3n2)c1)N1CCCC1
Outcome Measure: EC50
Limit Qualifier: =
Reported: 14200
//
Compound: CC(C)OC(=O)Nc1ccc(F)c(-c2cn3cc(-c4cccnc4)cnc3n2)c1
Outcome Measure: EC50
Limit Qualifier: =
Reported: 274
//
Compound: CC(C)NNC(=O)Nc1cnc2nc(-c3cc(NC(=O)N4CCCC4)ccc3F)cn2c1
Outcome Measure: EC50
Limit Qualifier: =
Reported: 19300
//
Compound: Cc1nc(C)c(C(=O)Nc2ccc(F)c(-c3cn4cc(-c5ccccc5F)cnc4n3)c2)o1
Outcome Measure: EC50
Limit Qualifier: =
Reported: 56
//
Compound: Cc1ncc(C(=O)Nc2ccc(F)c(-c3cn4cc(N(C)C)cnc4n3)c2)o1
Outcome Measure: EC50
Limit Qualifier: =
Reported: 147
//
Compound: CCN(CC)c1cnc2nc(-c3cc(NC(=O)c4oc(C)nc4C)ccc3F)cn2c1
Outcome Measure: EC50
Limit Qualifier: =
Reported: 601
//
Compound: CC(C)Nc1cnc2nc(-c3cc(NC(=O)N4CC(F)(F)C4)ccc3F)cn2c1
Outcome Measure: EC50
Limit Qualifier: =
Reported: 241
//
Compound: CN(C)c1cnc2nc(-c3cc(NC(=O)N4CC(F)C4)ccc3F)cn2c1
Outcome Measure: EC50
Limit Qualifier: =
Reported: 255
//
Compound: CN(C)C(=O)Nc1ccc(F)c(-c2cn3cc(N(C)C)cnc3n2)c1
Outcome Measure: EC50
Limit Qualifier: =
Reported: 869
//
Compound: CC(C)Nc1cnc2nc(-c3cc(NC(=O)N4CC(F)C4)ccc3F)cn2c1
Outcome Measure: EC50
Limit Qualifier: =
Reported: 145
//
Compound: Cc1nc(C)c(C(=O)Nc2ccc(F)c(-c3cn4cc(CC(C)C)cnc4n3)c2)o1
Outcome Measure: EC50
Limit Qualifier: =
Reported: 24
//
Compound: O=C(Nc1ccc(F)c(-c2cn3cc(C4CC4)cnc3n2)c1)N1CC(F)(F)C1
Outcome Measure: EC50
Limit Qualifier: =
Reported: 22
//
Compound: CC(C)(C)OC(=O)N1CCOCC1C(=O)Nc1ccc(F)c(-c2cn3cc(C4CC4)cnc3n2)c1 (centres unmarked)
Outcome Measure: EC50
Limit Qualifier: =
Reported: 17800
//
Compound: CCNc1cnc2nc(-c3cc(NC(=O)c4oc(C)nc4C)ccc3F)cn2c1
Outcome Measure: EC50
Limit Qualifier: =
Reported: 585
//
Compound: CC(C)Nc1cnc2nc(-c3cc(NC(=O)N4CCC4)ccc3F)cn2c1
Outcome Measure: EC50
Limit Qualifier: =
Reported: 212
//
Compound: Cc1nc(C)c(C(=O)Nc2ccc(F)c(-c3cn4cc(C(C)c5ccccc5)cnc4n3)c2)o1 (centres unmarked)
Outcome Measure: EC50
Limit Qualifier: =
Reported: 830
//
Compound: CNCCc1ccc(-c2cnc3nc(-c4cc(NC(=O)c5oc(C)nc5C)ccc4F)cn3c2)cc1
Outcome Measure: EC50
Limit Qualifier: =
Reported: 6470
//
Compound: Cc1nc(C)c(C(=O)Nc2ccc(F)c(-c3cn4cc(C(C)N(C)C)cnc4n3)c2)o1 (centres unmarked)
Outcome Measure: EC50
Limit Qualifier: =
Reported: 6350
